Biological target: T1, GST-hUHRF1-TTD (126-280) R207H (human, UniProt Q96T88 126-280, R207H)
T1 construct: Tandem Tudor domain (TTD) of human UHRF1, UniProt Q96T88, residues 126-280; source: E. coli, purified (Glutathione Agarose 4B); not shown: GST, N-terminal, kept
T1 sequence (looked up): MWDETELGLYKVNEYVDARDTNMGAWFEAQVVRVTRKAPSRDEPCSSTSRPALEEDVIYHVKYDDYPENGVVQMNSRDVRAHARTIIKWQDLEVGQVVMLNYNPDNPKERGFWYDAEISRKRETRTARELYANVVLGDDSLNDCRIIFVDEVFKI
Assay: fluorescence polarisation; fluorescence anisotropy titration; 100 nM FITC-labeled peptide in the cuvette, protein added stepwise; 23°C; 100 mM KCl, 20 mM HEPES pH 7.5, 10% v/v glycerol
Conditions: both partners purified
pKd: −log10 of the molar value. No end group written: not given here. Me3 = trimethyl (trimethyl-lysine)
MEASURED ATTRIBUTE: pKd

>>> experimental_result("ARTK(Me)QTARK(Me3)STGGKAPRKQ (peptide, UniProt P68431 2-20, looked up, also: FITC-labeled (position not given here), histone H3 N-terminal tail, residues 1-19; also called H3K4me1-K9me3; H3 K4me1-K9me3) [FITC-labeled H3(1-19) peptide with K4me1 and K9me3]")
6.34
